Molecular target: Mitogen-activated protein kinase 14 (Homo sapiens, UniProt Q16539)
Sequence (Q16539 whole entry): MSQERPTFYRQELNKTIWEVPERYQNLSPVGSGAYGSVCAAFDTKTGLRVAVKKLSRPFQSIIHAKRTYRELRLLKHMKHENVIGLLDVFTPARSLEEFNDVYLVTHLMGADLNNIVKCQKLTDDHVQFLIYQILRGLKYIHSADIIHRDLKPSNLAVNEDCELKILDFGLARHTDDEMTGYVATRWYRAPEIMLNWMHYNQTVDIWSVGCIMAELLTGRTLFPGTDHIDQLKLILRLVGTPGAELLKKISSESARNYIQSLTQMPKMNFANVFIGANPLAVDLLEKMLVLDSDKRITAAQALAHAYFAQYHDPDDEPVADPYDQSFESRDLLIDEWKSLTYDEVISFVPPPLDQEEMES
Experiment: Percent inhibition determined in vitro against mitogen-activated protein kinase p38 alpha 2 derived from Escherichia coli at 5 uM
valueKind: inhibition

Consider the reported inhibition for these compounds:
COC(=O)c1sc(C(C)(C)C)cc1NC(=O)Nc1ccc(C(=O)O)cc1: 4%
COC(=O)c1oc(C(C)(C)C)cc1NC(=O)Nc1ccc(F)cc1: 67%
COC(=O)c1sc(C(C)(C)C)cc1NC(=O)Nc1cccc(Cl)c1Cl: 79%
COC(=O)c1sc(C(C)(C)C)cc1NC(=O)Nc1ccc(C)cc1: 94%
COC(=O)c1sc(C(C)(C)C)cc1NC(=O)Nc1ccc(-c2ccccc2)cc1: 6%

Request: Quick one: give measured inhibition for COC(=O)c1sc(C(C)(C)C)cc1NC(=O)Nc1ccc(O)cc1
Response: 44%

Request: Please give measured inhibition of the following entry: COC(=O)c1oc(C(C)(C)C)cc1NC(=O)Nc1cccc(Cl)c1Cl
Response: 97%

Request: Consider the compound COC(=O)c1sc(C(C)(C)C)cc1NC(=O)Nc1ccc(N)cc1 . State its measured inhibition.
Response: 40%

Request: Please report the measured inhibition for COC(=O)c1[nH]c(C(C)(C)C)cc1NC(=O)Nc1cccc(Cl)c1
Response: 95%

Request: Please report the measured inhibition for CNC(=O)c1[nH]c(C(C)(C)C)cc1NC(=O)Nc1cccc(Cl)c1Cl
Response: 95%

Request: For the compound COC(=O)c1c(NC(=O)Nc2ccccc2)cc(C(C)(C)C)n1C , give its reported inhibition.
Response: 32%
